Documented GI50 across a set of compounds
# Test system: OVCAR-4
# assay.notes: NCI tumour cell line growth inhibition, 48 h
Active and inactive are the calls of the source. Rule as the data show it: active = GI50 up to about 1.1 µM and inactive = higher.

[Q] Report GI50 for CC(C)(CO)NC(=O)c1cccs1 please.
[A] > 100 µM (inactive)

[Q] Report GI50 for C=CCOC(=O)CCCCCCCCCCCCCCCOC(=O)C1=C(CCC[C@@H](C)O[Si](C)(C)C(C)(C)C)N=C(N)N2[C@H](CC3(CC/C=C\[C@H](CC)O[Si](C(C)C)(C(C)C)C(C)C)OCCO3)CC[C@@H]12 please.
[A] > 100 µM (inactive)

[Q] Report GI50 for O=C(O)c1ccc(CI)cc1 please.
[A] 14.3 µM (inactive)

[Q] Report GI50 for CCC(=O)c1cn(C)c(=O)c2ccccc12 please.
[A] > 100 µM (inactive)

[Q] Report GI50 for CC(=O)O[C@H]1CCC2[C@@H]3CCC4Nc5oncc5C[C@]4(C)C3CC[C@@]21C (some centres undefined) please.
[A] > 10 µM (inactive)

[Q] Report GI50 for COc1cc2c(oc(=O)c3cc4cc([Si](C)(C)C)oc4c(OC)c32)c2cccc(O)c12 please.
[A] > 100 µM (inactive)

[Q] Report GI50 for CCSCN(C)c1nc(N(C)C)nc(N(C)C)n1 please.
[A] 72.3 µM (inactive)
